- Measured on: T1, biotinylated CD3 epsilon:delta heterodimer protein (Amsbio AMS.CDD-H52WO) (Homo sapiens (Human), UniProt P07766 23-126; P04234 22-105)
- T1 construct: also called CD3 heterodimer
- Assay info: BLI (Octet), CD3 on SA sensor, Fab analyte;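 note: biolayer interferometry with biotinylated CD3 epsilon:delta captured on streptavidin sensors, Fab analyte at several concentrations up to 300 nM, 100 s association then 300 s dissociation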
Would you kindly list kon for each of these binders?
Expressed in M⁻¹ s⁻¹, but write only the number.

query: Requested read-out: kon. Entry: huSP34.6.5 Fab-HF (Fab, V domains shown, also called HC6+LC5) VH: EVQLVESGGGLVQPGGSLRLSCAASGFTFSTYAMNWVRQAPGKGLEWVGRIRSKYNNYATYYADSVKGRFTISRDNSKNTLYLQMNSLRAEDTAMYYCVRHGNFGNSYVSWFAVWGQGTLVTVSS VL: QAVVTQEPSLTVSPGGTVTLTCGSSTGAVTTGHYANWVQQKPGQAPRGLIGGTSNRAPWTPARFSGSLLGGKAALTLSGAQPEDEAEYYCALWYSARWVFGGGTKLTVL
result: 273000

query: Which kon reading was recorded for the binder huSP34.7.1 Fab-HF (Fab, V domains shown, also called HC7+LC1) VH: EVQLVESGGGLVQPGGSLRLSCAASGFTFSDYAMNWVRQAPGKGLEWVGRTRSKYNNYATYYAASVKGRFTISRDDSKNSLYLQMNSLKTEDTAVYYCVRHGNFGNSYVSWFAVWGQGTLVTVSS VL: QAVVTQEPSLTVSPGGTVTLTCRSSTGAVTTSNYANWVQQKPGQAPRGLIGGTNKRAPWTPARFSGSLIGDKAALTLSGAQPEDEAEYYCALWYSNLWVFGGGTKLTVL ?
result: 235000

These data points were gathered from patent US20230056252A1.
